- experimental_target: USP46 (UniProt P62068)
- Sequence (P62068 whole entry, the tested form may be a part): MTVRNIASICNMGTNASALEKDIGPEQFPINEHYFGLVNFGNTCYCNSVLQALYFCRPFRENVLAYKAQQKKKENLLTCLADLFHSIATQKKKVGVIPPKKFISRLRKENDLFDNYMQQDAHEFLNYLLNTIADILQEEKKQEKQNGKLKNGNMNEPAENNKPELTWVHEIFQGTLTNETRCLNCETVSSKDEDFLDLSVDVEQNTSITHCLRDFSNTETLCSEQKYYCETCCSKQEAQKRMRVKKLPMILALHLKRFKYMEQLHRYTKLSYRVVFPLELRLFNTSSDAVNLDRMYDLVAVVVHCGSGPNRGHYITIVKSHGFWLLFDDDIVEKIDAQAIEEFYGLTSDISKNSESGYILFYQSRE
- experiment: log2 ratio of Biotin-Ahx-Ub-VS probe labelling (fragment/DMSO); higher = less target engagement (more negative = stronger competition), active = hit call of the paper (q ≤ 0.05, log2 ratio ≤ -1)
- condition_description: compound concentration: 200 uM; treatment time: 3 h
Label scheme for log2 ratio of Biotin-Ahx-Ub-VS probe labelling: lower than -0.005 is n, -0.005 and above is y.

I'd appreciate it if you could say whether CC(NC(=O)CCl)c1cc2n(n1)CCCC2.Cl (centres undefined) has log2 ratio of Biotin-Ahx-Ub-VS probe labelling at least equal to -0.005.
n

I'd appreciate it if you could say whether CC(NC(=O)CCl)c1noc(Cc2ccccc2)n1 (centres undefined) has log2 ratio of Biotin-Ahx-Ub-VS probe labelling at least equal to -0.005.
n

I'd appreciate it if you could say whether Cc1cccc2nc(CCNC(=O)CCl)cn12.Cl has log2 ratio of Biotin-Ahx-Ub-VS probe labelling at least equal to -0.005.
n

I'd appreciate it if you could say whether CN(C)S(=O)(=O)c1ccccc1CNC(=O)CCl has log2 ratio of Biotin-Ahx-Ub-VS probe labelling at least equal to -0.005.
y

I'd appreciate it if you could say whether O=C(CCl)NCc1noc(C2CC2)n1 has log2 ratio of Biotin-Ahx-Ub-VS probe labelling at least equal to -0.005.
n

I'd appreciate it if you could say whether NC(=O)C1CCCCN1C(=O)CCl (centres undefined) has log2 ratio of Biotin-Ahx-Ub-VS probe labelling at least equal to -0.005.
y

I'd appreciate it if you could say whether CC(=O)Nc1ccc(NC(=O)CCl)cc1 has log2 ratio of Biotin-Ahx-Ub-VS probe labelling at least equal to -0.005.
n

I'd appreciate it if you could say whether COc1ccc(C2CCCN2C(=O)CCl)c(OC)c1 (centres undefined) has log2 ratio of Biotin-Ahx-Ub-VS probe labelling at least equal to -0.005.
n

I'd appreciate it if you could say whether Cc1cccc(N2CCC(NC(=O)CCl)C2=O)c1 (centres undefined) has log2 ratio of Biotin-Ahx-Ub-VS probe labelling at least equal to -0.005.
y

I'd appreciate it if you could say whether O=C(CCl)N(C1CCCC1)C1CCS(=O)(=O)C1 (centres undefined) has log2 ratio of Biotin-Ahx-Ub-VS probe labelling at least equal to -0.005.
n

I'd appreciate it if you could say whether CCN(C(=O)CCl)C1CCCCC1 has log2 ratio of Biotin-Ahx-Ub-VS probe labelling at least equal to -0.005.
n

I'd appreciate it if you could say whether CC1CN(c2ccc(NC(=O)CCl)cc2)CC(C)O1 (centres undefined) has log2 ratio of Biotin-Ahx-Ub-VS probe labelling at least equal to -0.005.
y

I'd appreciate it if you could say whether O=C(CCl)N1CCc2sccc2C1 has log2 ratio of Biotin-Ahx-Ub-VS probe labelling at least equal to -0.005.
n

I'd appreciate it if you could say whether Cl.O=C(CCl)N[C@H]1C[C@@H](n2cccn2)C1 has log2 ratio of Biotin-Ahx-Ub-VS probe labelling at least equal to -0.005.
y

I'd appreciate it if you could say whether O=C(CCl)Nc1cccc(C(=O)N2CCSCC2)c1 has log2 ratio of Biotin-Ahx-Ub-VS probe labelling at least equal to -0.005.
n

I'd appreciate it if you could say whether CC(NC(=O)CCl)c1cccc2ccccc12 (centres undefined) has log2 ratio of Biotin-Ahx-Ub-VS probe labelling at least equal to -0.005.
y

I'd appreciate it if you could say whether CS(=O)(=O)N1CCCN(C(=O)CCl)CC1 has log2 ratio of Biotin-Ahx-Ub-VS probe labelling at least equal to -0.005.
y

I'd appreciate it if you could say whether Cl.O=C(CCl)N1CCCC(c2ncc[nH]2)C1 (centres undefined) has log2 ratio of Biotin-Ahx-Ub-VS probe labelling at least equal to -0.005.
y

I'd appreciate it if you could say whether Cc1nc(-c2cccc(NC(=O)CCl)c2)cs1 has log2 ratio of Biotin-Ahx-Ub-VS probe labelling at least equal to -0.005.
n

I'd appreciate it if you could say whether O=C(CCl)Nc1nnc(CC(F)(F)F)o1 has log2 ratio of Biotin-Ahx-Ub-VS probe labelling at least equal to -0.005.
y

I'd appreciate it if you could say whether O=C(CCl)Nc1cc(Cl)ccc1C(=O)O has log2 ratio of Biotin-Ahx-Ub-VS probe labelling at least equal to -0.005.
y

I'd appreciate it if you could say whether Cc1ccc(CC(CO)CNC(=O)CCl)cc1 (centres undefined) has log2 ratio of Biotin-Ahx-Ub-VS probe labelling at least equal to -0.005.
y

I'd appreciate it if you could say whether O=C(CCl)N1CCOC(CCc2ccccc2)C1 (centres undefined) has log2 ratio of Biotin-Ahx-Ub-VS probe labelling at least equal to -0.005.
n

I'd appreciate it if you could say whether Cc1ccc(C)c(Oc2ccc(CNC(=O)CCl)cn2)c1.Cl has log2 ratio of Biotin-Ahx-Ub-VS probe labelling at least equal to -0.005.
y

I'd appreciate it if you could say whether Cc1cc(Cl)ccc1NC(=O)CCl has log2 ratio of Biotin-Ahx-Ub-VS probe labelling at least equal to -0.005.
n

I'd appreciate it if you could say whether CN(Cc1nc2ccccc2[nH]1)C(=O)CCl.Cl has log2 ratio of Biotin-Ahx-Ub-VS probe labelling at least equal to -0.005.
n

I'd appreciate it if you could say whether O=C(CCl)NCc1ccc(N2CCOCC2)c(F)c1 has log2 ratio of Biotin-Ahx-Ub-VS probe labelling at least equal to -0.005.
y

I'd appreciate it if you could say whether Cl.O=C(CCl)NCCc1ncc(F)cc1F has log2 ratio of Biotin-Ahx-Ub-VS probe labelling at least equal to -0.005.
n

I'd appreciate it if you could say whether O=C(CCl)NCCC1COCCO1 (centres undefined) has log2 ratio of Biotin-Ahx-Ub-VS probe labelling at least equal to -0.005.
y
